From: patent US9233964B2

- Test target: TYK2 (Homo sapiens, UniProt P29597)
- Construct: JAK1 (aa 850-1154) and TYK2 (aa 871-1187) are expressed with an N-terminally fused GST-tag; GST (N)
- Sequence (P29597 871-1187): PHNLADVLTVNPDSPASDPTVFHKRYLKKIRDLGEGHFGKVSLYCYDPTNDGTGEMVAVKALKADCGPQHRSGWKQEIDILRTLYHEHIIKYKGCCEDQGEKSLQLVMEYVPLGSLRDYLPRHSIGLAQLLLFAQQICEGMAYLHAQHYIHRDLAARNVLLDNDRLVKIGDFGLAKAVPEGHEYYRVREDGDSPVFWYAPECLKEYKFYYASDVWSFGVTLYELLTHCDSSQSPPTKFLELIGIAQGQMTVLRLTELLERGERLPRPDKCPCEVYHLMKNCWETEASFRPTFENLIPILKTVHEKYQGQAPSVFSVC
- Protocol description: JAK kinase assay (HTRF, phosphorylation of synthetic peptide), TYK2
- Test settings: catalytic domain, ATP at Km (13 μM); read-out: TYK2 kinase inhibitory activity (EC50)
pEC50: −log10 of the molar value.
Measure: pEC50

Item: CCCC(C)NS(=O)(=O)N1CCN(c2ncnc3[nH]ccc23)CC12CC2 (stereo not drawn) | System: TYK2 (Homo sapiens, UniProt P29597) | pEC50: < 6.30

More entries:
Item: `CN(C1CN(C(=O)CO)C1)S(=O)(=O)N1CCN(c2ncnc3[nH]ccc23)CC12CC2` | System: TYK2 (Homo sapiens, UniProt P29597) | pEC50: 6.30 to 7.00

Item: `COCCN(CCc1ccccc1)S(=O)(=O)N1CCN(c2ncnc3[nH]ccc23)CC12CC2` | System: TYK2 (Homo sapiens, UniProt P29597) | pEC50: 6.30 to 7.00

Item: O=S1(=O)CCC(CN(CCO)S(=O)(=O)N2CCN(c3ncnc4[nH]ccc34)CC23CC3)C1 (stereo not drawn) | System: TYK2 (Homo sapiens, UniProt P29597) | pEC50: 6.30 to 7.00

Item: `O=S(=O)(N(CCO)CCOc1ccccc1)N1CCN(c2ncnc3[nH]ccc23)CC12CC2` | System: TYK2 (Homo sapiens, UniProt P29597) | pEC50: < 6.30

Item: `N#CCN(CCc1ccccc1)S(=O)(=O)N1CCN(c2ncnc3[nH]ccc23)CC12CC2` | System: TYK2 (Homo sapiens, UniProt P29597) | pEC50: > 7.00
